Experiment: Phase 1 single ascending dose study of grapiprant OPC: pharmacokinetics
Assay type: in vivo, human
Details: human, serum, oral, 10 mg, single 10 mg dose as OPC, fasted, healthy adults, median; read-out: Tmax
measuredProperty: Tmax (h)
Give the number; h is assumed, so skip it.

Consider the molecule shown here: CCc1nc2c(C)nc(C)cc2n1-c1ccc(CCNC(=O)NS(=O)(=O)c2ccc(C)cc2)cc1 [Grapiprant] What is its recorded Tmax?
2

---

Experiment: Phase 1 single ascending dose study of grapiprant OPC: pharmacokinetics
Format: in vivo, human
Settings: human, serum, oral, 100 mg, single 100 mg dose as OPC, fasted, healthy adults, median; read-out: Tmax
measuredProperty: Tmax (min)
Give the number; min is assumed, so skip it.

Consider the compound shown here: CCc1nc2c(C)nc(C)cc2n1-c1ccc(CCNC(=O)NS(=O)(=O)c2ccc(C)cc2)cc1 [Grapiprant] What is its recorded Tmax?
45

---

Test: Phase 1 single ascending dose study of grapiprant OPC: pharmacokinetics
Format: in vivo, human
Conditions: human, serum, oral, 1500 mg, single 1500 mg dose as OPC, fasted, healthy adults, median; read-out: Tmax
Method: Eligible subjects were to be enrolled into 8 sequential cohorts, corresponding to the planned dose levels of 1 mg, 3 mg, 10 mg, 30 mg, 100 mg, 300 mg, 600 mg, and 1000 mg. […] After determining a maximum tolerated dose (MTD), or after completing the highest dose cohort if a MTD was not determined, Cohort 11 would be enrolled to increase the number of subjects evaluated at the MTD (or the highest dose). […]
measuredProperty: Tmax (min)
Give the number; min is assumed, so skip it.

Consider the compound shown here: CCc1nc2c(C)nc(C)cc2n1-c1ccc(CCNC(=O)NS(=O)(=O)c2ccc(C)cc2)cc1 [Grapiprant] What is its recorded Tmax?
45

---

Assay: Phase 1 multiple ascending dose study of grapiprant tablets: serum pharmacokinetics
Assay type: in vivo, human
Settings: human, serum, oral, 300 mg, 300 mg BID tablets, Day 1 (n = 9), healthy adults, serum, mean
measuredProperty: Cmax (ng/mL)
Give the number; ng/mL is assumed, so skip it.

Consider the compound shown here: CCc1nc2c(C)nc(C)cc2n1-c1ccc(CCNC(=O)NS(=O)(=O)c2ccc(C)cc2)cc1 What is its recorded Cmax?
8240

---

Assay: Phase 1 multiple ascending dose study of grapiprant tablets: serum pharmacokinetics
Assay type: in vivo, human
Settings: human, serum, oral, 250 mg, 250 mg BID tablets, Day 17, elderly with mild renal impairment, serum, median
measuredProperty: Tmax (h)
Give the number; h is assumed, so skip it.

Consider the compound shown here: CCc1nc2c(C)nc(C)cc2n1-c1ccc(CCNC(=O)NS(=O)(=O)c2ccc(C)cc2)cc1 [Grapiprant] What is its recorded Tmax?
1

---

Assay: Phase 1 single ascending dose study of grapiprant OPC: pharmacokinetics
Format: in vivo, human
Conditions: human, oral; single 600 mg dose as OPC, fasted, healthy adults, serum, mean
measuredProperty: AUC(0-t) (ng·h/mL)
Give the number; ng·h/mL is assumed, so skip it.

Consider the molecule shown here: CCc1nc2c(C)nc(C)cc2n1-c1ccc(CCNC(=O)NS(=O)(=O)c2ccc(C)cc2)cc1 What is its recorded AUC(0-t)?
92200

---

Assay: Phase 1 multiple ascending dose study of grapiprant tablets: serum pharmacokinetics
Format: in vivo, human
Conditions: human, oral; 300 mg BID tablets, Day 14, healthy adults, serum, mean
Source text: Serum pharmacokinetic parameters can be computed using WinNonlin Version 3.2 (Pharsight®, Mountain View, Calif.) using standard non-compartmental methods. […] As used herein, the term “AUC(0-tlast)” refers to the area under the serum concentration vs. time curve from time 0 to Tlast (the time of the last quantifiable concentration estimated using the linear/log trapezoidal approximation). […] As used herein, the term “t½” refers to terminal phase half-life calculated as ln(2)/kel. […]
measuredProperty: half-life
Could you write the number and then its unit?

Consider the compound shown here: CCc1nc2c(C)nc(C)cc2n1-c1ccc(CCNC(=O)NS(=O)(=O)c2ccc(C)cc2)cc1 What is its recorded half-life?
8.76 h

---

Assay: Phase 1 single ascending dose study of grapiprant OPC: pharmacokinetics
Assay type: in vivo, human
Conditions: human, oral; single 1 mg dose as OPC, fasted, healthy adults, serum, mean
measuredProperty: Cmax (ng/mL)
Give the number; ng/mL is assumed, so skip it.

Consider the compound shown here: CCc1nc2c(C)nc(C)cc2n1-c1ccc(CCNC(=O)NS(=O)(=O)c2ccc(C)cc2)cc1 What is its recorded Cmax?
6.59

---

Experiment: Phase 1 single ascending dose study of grapiprant OPC: pharmacokinetics
Type: in vivo, human
Conditions: human, oral; single 3 mg dose as OPC, fasted, healthy adults, serum, mean
measuredProperty: AUC(0-inf) (ng·h/mL)
Give the number; ng·h/mL is assumed, so skip it.

Consider the compound shown here: CCc1nc2c(C)nc(C)cc2n1-c1ccc(CCNC(=O)NS(=O)(=O)c2ccc(C)cc2)cc1 [Grapiprant] What is its recorded AUC(0-inf)?
260

---

Test: Phase 1 crossover food effect study of 375 mg grapiprant tablets: pharmacokinetics
Assay type: in vivo, human
Conditions: human, serum, po, 375 mg, 375 mg tablet-fed (high-fat meal), single oral dose, healthy subjects (N = 12), arithmetic mean
measuredProperty: Cmax (µg/mL)
Give the number; µg/mL is assumed, so skip it.

Consider the molecule shown here: CCc1nc2c(C)nc(C)cc2n1-c1ccc(CCNC(=O)NS(=O)(=O)c2ccc(C)cc2)cc1 What is its recorded Cmax?
5.84

---

Test: Phase 1 single ascending dose study of grapiprant OPC: pharmacokinetics
Assay type: in vivo, human
Conditions: human, serum, oral, 300 mg, single 300 mg dose as OPC, fasted, healthy adults, median; read-out: Tmax
measuredProperty: Tmax (min)
Give the number; min is assumed, so skip it.

Consider the compound shown here: CCc1nc2c(C)nc(C)cc2n1-c1ccc(CCNC(=O)NS(=O)(=O)c2ccc(C)cc2)cc1 What is its recorded Tmax?
45

---

Assay: Phase 1 multiple ascending dose study of grapiprant tablets: serum pharmacokinetics
Type: in vivo, human
Conditions: human, serum, oral, 50 mg, 50 mg BID tablets, Day 1, healthy adults, serum, mean
measuredProperty: AUC(0-t)
Could you write the number and then its unit?

Consider the compound shown here: CCc1nc2c(C)nc(C)cc2n1-c1ccc(CCNC(=O)NS(=O)(=O)c2ccc(C)cc2)cc1 What is its recorded AUC(0-t)?
3150 ng·h/mL

---

Experiment: Phase 1 multiple ascending dose study of grapiprant tablets: serum pharmacokinetics
Type: in vivo, human
Settings: human, serum, oral, 300 mg, 300 mg BID tablets, Day 1, healthy adults, serum, mean
measuredProperty: AUC(0-t)
Could you write the number and then its unit?

Consider the molecule shown here: CCc1nc2c(C)nc(C)cc2n1-c1ccc(CCNC(=O)NS(=O)(=O)c2ccc(C)cc2)cc1 What is its recorded AUC(0-t)?
24900 ng·h/mL

---

Assay: Phase 1 single ascending dose study of grapiprant OPC: pharmacokinetics
Assay type: in vivo, human
Conditions: human, serum, oral, 600 mg, single 600 mg dose as OPC, fasted, healthy adults, mean; read-out: T½ (converted)
measuredProperty: half-life

Consider the molecule shown here: CCc1nc2c(C)nc(C)cc2n1-c1ccc(CCNC(=O)NS(=O)(=O)c2ccc(C)cc2)cc1 [Grapiprant] What is its recorded half-life?
8.03 h

---

Experiment: Phase 1 single ascending dose study of grapiprant OPC: pharmacokinetics
Type: in vivo, human
Conditions: human, oral; single 100 mg dose as OPC, fasted, healthy adults, serum, mean
measuredProperty: AUC(0-t) (ng·h/mL)
Give the number; ng·h/mL is assumed, so skip it.

Consider the compound shown here: CCc1nc2c(C)nc(C)cc2n1-c1ccc(CCNC(=O)NS(=O)(=O)c2ccc(C)cc2)cc1 What is its recorded AUC(0-t)?
7170

---

Assay: Phase 1 multiple ascending dose study of grapiprant tablets: serum pharmacokinetics
Assay type: in vivo, human
Settings: human, serum, oral, 250 mg, 250 mg BID tablets, Day 1 (n = 15), elderly with mild renal impairment, serum, mean
measuredProperty: Cmax (ng/mL)
Give the number; ng/mL is assumed, so skip it.

Consider the molecule shown here: CCc1nc2c(C)nc(C)cc2n1-c1ccc(CCNC(=O)NS(=O)(=O)c2ccc(C)cc2)cc1 [Grapiprant] What is its recorded Cmax?
10300

---

Assay: Phase 1 single ascending dose study of grapiprant OPC: pharmacokinetics
Type: in vivo, human
Conditions: human, serum, oral, 1 mg, single 1 mg dose as OPC, fasted, healthy adults, median; read-out: Tmax
measuredProperty: Tmax (h)
Give the number; h is assumed, so skip it.

Consider the compound shown here: CCc1nc2c(C)nc(C)cc2n1-c1ccc(CCNC(=O)NS(=O)(=O)c2ccc(C)cc2)cc1 [Grapiprant] What is its recorded Tmax?
2.5

---

Test: Phase 1 single ascending dose study of grapiprant OPC: pharmacokinetics
Format: in vivo, human
Settings: human, serum, oral, 100 mg, single 100 mg dose as OPC, fasted, healthy adults, mean; read-out: T½ (converted)
measuredProperty: half-life

Consider the compound shown here: CCc1nc2c(C)nc(C)cc2n1-c1ccc(CCNC(=O)NS(=O)(=O)c2ccc(C)cc2)cc1 What is its recorded half-life?
6.91 h
